- Target or test system: MAP3K10 (human) (UniProt Q02779)
- Sequence (Q02779 whole entry, looked up): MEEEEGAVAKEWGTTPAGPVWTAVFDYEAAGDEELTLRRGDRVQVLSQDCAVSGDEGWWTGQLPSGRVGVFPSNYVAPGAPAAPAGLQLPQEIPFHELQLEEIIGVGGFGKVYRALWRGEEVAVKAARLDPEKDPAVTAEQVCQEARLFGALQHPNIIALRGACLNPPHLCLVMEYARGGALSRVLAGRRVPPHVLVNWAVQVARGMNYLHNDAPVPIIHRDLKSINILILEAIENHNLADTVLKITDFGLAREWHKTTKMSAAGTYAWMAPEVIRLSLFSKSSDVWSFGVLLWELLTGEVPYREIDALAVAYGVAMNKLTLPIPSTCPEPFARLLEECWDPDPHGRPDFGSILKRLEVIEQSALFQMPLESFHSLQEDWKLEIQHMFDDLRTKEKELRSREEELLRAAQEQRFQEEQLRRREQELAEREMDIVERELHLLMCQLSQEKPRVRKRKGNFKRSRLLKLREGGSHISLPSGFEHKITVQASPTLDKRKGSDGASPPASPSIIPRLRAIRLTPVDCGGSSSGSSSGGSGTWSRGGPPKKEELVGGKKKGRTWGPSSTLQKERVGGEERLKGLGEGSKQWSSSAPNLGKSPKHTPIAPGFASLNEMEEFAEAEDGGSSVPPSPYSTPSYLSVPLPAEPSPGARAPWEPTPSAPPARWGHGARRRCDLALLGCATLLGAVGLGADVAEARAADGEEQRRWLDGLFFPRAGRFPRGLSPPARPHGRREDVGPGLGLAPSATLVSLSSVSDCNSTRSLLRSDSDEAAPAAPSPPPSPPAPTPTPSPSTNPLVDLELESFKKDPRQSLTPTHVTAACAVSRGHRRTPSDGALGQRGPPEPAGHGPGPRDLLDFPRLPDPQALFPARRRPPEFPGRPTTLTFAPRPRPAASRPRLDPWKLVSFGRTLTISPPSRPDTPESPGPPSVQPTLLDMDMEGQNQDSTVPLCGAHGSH
- Protocol: ELISA
- Test parameters: compound 0.02 µM
Quantity measured: inhibition (%)

A = Cc1ccc(Nc2nccc(N(C)c3ccc4c(C)n(C)nc4c3)n2)cc1S(N)(=O)=O
B = CNC(=O)c1ccccc1Sc1ccc2c(/C=C/c3ccccn3)n[nH]c2c1
C = CNC(=O)c1cc(Oc2ccc(NC(=O)Nc3ccc(Cl)c(C(F)(F)F)c3)cc2)ccn1
Using measured inhibition, arrange the compounds from above in descending sequence. Please reply with the labels ordered as requested. Many thanks.
A, B, C

* * *

- Target or test system: UniProtKB Q02750
- Sequence (Q02750 whole entry, looked up): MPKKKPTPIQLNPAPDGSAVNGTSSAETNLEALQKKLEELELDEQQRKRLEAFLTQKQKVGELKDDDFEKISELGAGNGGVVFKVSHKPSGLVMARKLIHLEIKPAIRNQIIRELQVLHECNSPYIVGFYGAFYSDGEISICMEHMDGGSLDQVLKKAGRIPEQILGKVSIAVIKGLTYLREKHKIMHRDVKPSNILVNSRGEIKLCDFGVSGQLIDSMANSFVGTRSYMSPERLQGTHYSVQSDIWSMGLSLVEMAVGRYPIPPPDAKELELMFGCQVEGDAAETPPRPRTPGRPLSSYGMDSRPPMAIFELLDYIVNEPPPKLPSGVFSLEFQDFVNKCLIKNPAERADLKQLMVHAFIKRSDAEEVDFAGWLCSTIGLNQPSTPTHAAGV
- Protocol: ELISA
- Test parameters: compound 0.2 µM
Quantity measured: inhibition (%)

1 = CNC(=O)c1cc(Oc2ccc(NC(=O)Nc3ccc(Cl)c(C(F)(F)F)c3)cc2)ccn1
2 = CCN(CC)CCNC(=O)c1c(C)[nH]c(/C=C2\C(=O)Nc3ccc(F)cc32)c1C
3 = Cc1ccc(Nc2nccc(N(C)c3ccc4c(C)n(C)nc4c3)n2)cc1S(N)(=O)=O
4 = COc1cc2c(Oc3ccc4[nH]c(C)cc4c3F)ncnc2cc1OCCCN1CCCC1
Sort the compounds on inhibition; start with the lowest figure. I would appreciate it if you listed the labels in the requested order.
3, 4, 1, 2
(3: -5.7%, 4: -2.4%, 1: 17.4%, 2: 73.2%)

* * *

- Target or test system: CDK3 (human)
- Protocol: Caliper, Mobility shift assay off-chip
- Test parameters: compound 0.2 µM
Quantity measured: inhibition (%)

Solved entries (count: 2):
# Smi, Quantity measured, Result unit, Test value
data = [
    ("COc1cc2c(Oc3ccc4[nH]c(C)cc4c3F)ncnc2cc1OCCCN1CCCC1", "inhibition", "%", -1.1),
    ("CNC(=O)c1cc(Oc2ccc(NC(=O)Nc3ccc(Cl)c(C(F)(F)F)c3)cc2)ccn1", "inhibition", "%", -2.4),
]

P = Cc1ccc(Nc2nccc(N(C)c3ccc4c(C)n(C)nc4c3)n2)cc1S(N)(=O)=O
Q = CCN(CC)CCNC(=O)c1c(C)[nH]c(/C=C2\C(=O)Nc3ccc(F)cc32)c1C
Of the two listed items, P and Q , which carries the larger inhibition figure? Please reply using the label of the selected record.
Q
(Q: 0.3%, P: -4.3%)

* * *

- Target or test system: ROCK1 (human)
- Protocol: Caliper, Mobility shift assay off-chip
- Test parameters: compound 0.02 µM
Quantity measured: inhibition (%)

These recorded examples may help you get a feel for the data.
# Smi, Test value
rows = [
    ("Cc1ccc(Nc2nccc(N(C)c3ccc4c(C)n(C)nc4c3)n2)cc1S(N)(=O)=O", 1.7),
    ("CNC(=O)c1cc(Oc2ccc(NC(=O)Nc3ccc(Cl)c(C(F)(F)F)c3)cc2)ccn1", -1.1),
]

a = CNC(=O)c1ccccc1Sc1ccc2c(/C=C/c3ccccn3)n[nH]c2c1
b = COc1cc2c(Oc3ccc4[nH]c(C)cc4c3F)ncnc2cc1OCCCN1CCCC1
Parameter metric = inhibition. Return the lower-valued option from a and b . To answer, give the label that identifies your chosen option.
b

* * *

- Target or test system: RPS6KA4 KD1 KD2 (human) (UniProt O75676)
- Sequence (O75676 whole entry, looked up): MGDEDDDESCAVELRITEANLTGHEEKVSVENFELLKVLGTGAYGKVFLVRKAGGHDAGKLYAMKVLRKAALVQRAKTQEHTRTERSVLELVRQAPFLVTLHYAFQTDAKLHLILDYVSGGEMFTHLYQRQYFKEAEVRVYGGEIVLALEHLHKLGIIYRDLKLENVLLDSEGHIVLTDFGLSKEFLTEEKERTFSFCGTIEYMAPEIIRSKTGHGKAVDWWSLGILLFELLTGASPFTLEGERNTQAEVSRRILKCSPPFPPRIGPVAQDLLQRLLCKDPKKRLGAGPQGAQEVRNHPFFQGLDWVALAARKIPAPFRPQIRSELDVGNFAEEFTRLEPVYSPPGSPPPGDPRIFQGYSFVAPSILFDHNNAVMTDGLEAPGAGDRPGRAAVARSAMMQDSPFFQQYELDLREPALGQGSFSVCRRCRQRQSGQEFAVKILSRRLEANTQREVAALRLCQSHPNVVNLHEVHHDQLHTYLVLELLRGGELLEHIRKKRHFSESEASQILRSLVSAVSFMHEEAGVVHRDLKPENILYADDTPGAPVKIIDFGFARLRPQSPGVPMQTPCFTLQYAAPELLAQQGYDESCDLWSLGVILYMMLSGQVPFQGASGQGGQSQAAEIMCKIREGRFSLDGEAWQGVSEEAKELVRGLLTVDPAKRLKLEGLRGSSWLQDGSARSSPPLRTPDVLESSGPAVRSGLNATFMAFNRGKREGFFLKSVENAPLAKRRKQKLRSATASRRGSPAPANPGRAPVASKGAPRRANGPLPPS
- Protocol: Caliper, Mobility shift assay off-chip
- Test parameters: compound 0.2 µM
Quantity measured: inhibition (%)

Answered examples (2):
# Smi, inhibition / %
data = [
    ("Cc1ccc(Nc2nccc(N(C)c3ccc4c(C)n(C)nc4c3)n2)cc1S(N)(=O)=O", 3.7),
    ("CNC(=O)c1cc(Oc2ccc(NC(=O)Nc3ccc(Cl)c(C(F)(F)F)c3)cc2)ccn1", 2.6),
]

I = COc1cc2c(Oc3ccc4[nH]c(C)cc4c3F)ncnc2cc1OCCCN1CCCC1
II = CCN(CC)CCNC(=O)c1c(C)[nH]c(/C=C2\C(=O)Nc3ccc(F)cc32)c1C
Looking only at measured inhibition, which entry is lower, I or II ? Record your answer as the label of the chosen record.
I
(I: 2.6%, II: 15.5%)

* * *

- Target or test system: CDC7 (human) (UniProt O00311)
- Sequence (O00311 whole entry, looked up): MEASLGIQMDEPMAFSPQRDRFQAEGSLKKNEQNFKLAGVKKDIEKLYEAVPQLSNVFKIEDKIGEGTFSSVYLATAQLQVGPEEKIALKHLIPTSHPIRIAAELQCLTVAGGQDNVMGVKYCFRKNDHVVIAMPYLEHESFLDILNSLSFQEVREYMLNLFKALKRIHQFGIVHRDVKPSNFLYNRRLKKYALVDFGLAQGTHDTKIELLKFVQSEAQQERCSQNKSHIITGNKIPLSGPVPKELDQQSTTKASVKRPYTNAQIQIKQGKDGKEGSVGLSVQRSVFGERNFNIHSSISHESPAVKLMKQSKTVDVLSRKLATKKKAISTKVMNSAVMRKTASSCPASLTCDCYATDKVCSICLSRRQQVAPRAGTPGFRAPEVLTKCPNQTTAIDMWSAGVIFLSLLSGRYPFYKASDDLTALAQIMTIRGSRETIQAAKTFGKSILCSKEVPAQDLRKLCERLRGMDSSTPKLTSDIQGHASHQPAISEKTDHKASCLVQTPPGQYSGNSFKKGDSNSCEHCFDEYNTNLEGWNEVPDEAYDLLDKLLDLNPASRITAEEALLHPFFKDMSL
- Protocol: Caliper, Mobility shift assay off-chip
- Test parameters: compound 0.02 µM
Quantity measured: inhibition (%)

1 = CNC(=O)c1ccccc1Sc1ccc2c(/C=C/c3ccccn3)n[nH]c2c1
2 = Cc1ccc(Nc2nccc(N(C)c3ccc4c(C)n(C)nc4c3)n2)cc1S(N)(=O)=O
In the pair 1 and 2 , the larger recorded inhibition belongs to which? Label of pick, please.
2
(2: -1.5%, 1: -5.8%)

* * *

- Target or test system: IKBKE (human) (UniProt Q14164)
- Sequence (Q14164 whole entry, looked up): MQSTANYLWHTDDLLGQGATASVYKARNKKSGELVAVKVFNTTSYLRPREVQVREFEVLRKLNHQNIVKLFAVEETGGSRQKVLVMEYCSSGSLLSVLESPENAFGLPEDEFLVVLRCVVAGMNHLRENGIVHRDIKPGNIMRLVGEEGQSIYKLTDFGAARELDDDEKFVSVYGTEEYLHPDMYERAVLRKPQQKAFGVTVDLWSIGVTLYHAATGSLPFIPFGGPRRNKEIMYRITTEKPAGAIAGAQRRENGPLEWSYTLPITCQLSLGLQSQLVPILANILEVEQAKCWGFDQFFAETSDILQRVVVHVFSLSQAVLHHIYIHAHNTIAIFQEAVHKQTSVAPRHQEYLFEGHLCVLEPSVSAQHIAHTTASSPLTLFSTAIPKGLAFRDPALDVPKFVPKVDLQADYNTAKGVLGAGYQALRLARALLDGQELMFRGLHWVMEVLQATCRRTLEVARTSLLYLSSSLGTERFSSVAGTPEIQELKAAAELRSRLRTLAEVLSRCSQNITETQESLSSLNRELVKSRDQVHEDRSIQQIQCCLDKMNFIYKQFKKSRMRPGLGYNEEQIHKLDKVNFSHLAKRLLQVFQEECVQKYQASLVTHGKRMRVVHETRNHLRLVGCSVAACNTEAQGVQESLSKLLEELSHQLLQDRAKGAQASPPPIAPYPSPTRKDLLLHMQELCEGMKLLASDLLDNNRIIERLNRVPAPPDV
- Protocol: Caliper, Mobility shift assay off-chip
- Test parameters: compound 0.02 µM
Quantity measured: inhibition (%)

# Smi, inhibition, %
data = [
    ("CNC(=O)c1ccccc1Sc1ccc2c(/C=C/c3ccccn3)n[nH]c2c1", -5.1),
    ("Cc1ccc(Nc2nccc(N(C)c3ccc4c(C)n(C)nc4c3)n2)cc1S(N)(=O)=O", -3.4),
    ("COc1cc2c(Oc3ccc4[nH]c(C)cc4c3F)ncnc2cc1OCCCN1CCCC1", -6.2),
    ("CNC(=O)c1cc(Oc2ccc(NC(=O)Nc3ccc(Cl)c(C(F)(F)F)c3)cc2)ccn1", -4.5),
]

* * *

- Target or test system: CSNK2A1 (human) (UniProt P68400)
- Sequence (P68400 whole entry, looked up): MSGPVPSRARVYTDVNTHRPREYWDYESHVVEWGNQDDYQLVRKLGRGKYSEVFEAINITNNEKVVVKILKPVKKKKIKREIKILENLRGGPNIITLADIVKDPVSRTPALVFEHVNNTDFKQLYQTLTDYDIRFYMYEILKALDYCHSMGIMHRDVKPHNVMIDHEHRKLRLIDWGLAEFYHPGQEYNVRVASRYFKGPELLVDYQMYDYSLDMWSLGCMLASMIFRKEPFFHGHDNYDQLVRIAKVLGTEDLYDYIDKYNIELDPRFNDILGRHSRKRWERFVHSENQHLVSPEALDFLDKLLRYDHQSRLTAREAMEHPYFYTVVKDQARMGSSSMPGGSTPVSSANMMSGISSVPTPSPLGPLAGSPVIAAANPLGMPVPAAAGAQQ
- Protocol: Caliper, Mobility shift assay off-chip
- Test parameters: compound 0.02 µM
Quantity measured: inhibition (%)

# Smi, inhibition, %
rows = [
    ("Cc1ccc(Nc2nccc(N(C)c3ccc4c(C)n(C)nc4c3)n2)cc1S(N)(=O)=O", -3),
    ("COc1cc2c(Oc3ccc4[nH]c(C)cc4c3F)ncnc2cc1OCCCN1CCCC1", -0.1),
]

a = CNC(=O)c1cc(Oc2ccc(NC(=O)Nc3ccc(Cl)c(C(F)(F)F)c3)cc2)ccn1
b = CNC(=O)c1ccccc1Sc1ccc2c(/C=C/c3ccccn3)n[nH]c2c1
Could you tell me which of these two has the smaller inhibition figure? First: a Second: b # reply format: chosen label
b

* * *

- Target or test system: MST1R (human)
- Protocol: Caliper, Mobility shift assay off-chip
- Test parameters: compound 0.02 µM
Quantity measured: inhibition (%)

P = CNC(=O)c1cc(Oc2ccc(NC(=O)Nc3ccc(Cl)c(C(F)(F)F)c3)cc2)ccn1
Q = Cc1ccc(Nc2nccc(N(C)c3ccc4c(C)n(C)nc4c3)n2)cc1S(N)(=O)=O
R = COc1cc2c(Oc3ccc4[nH]c(C)cc4c3F)ncnc2cc1OCCCN1CCCC1
# rank by inhibition, ascending (min first) Please list the labels in the order you were asked to rank them.
P, Q, R
(P: -4.7%, Q: 2.1%, R: 4.9%)

* * *

- Target or test system: PRKD2 (human) (UniProt Q9BZL6)
- Sequence (Q9BZL6 whole entry, looked up): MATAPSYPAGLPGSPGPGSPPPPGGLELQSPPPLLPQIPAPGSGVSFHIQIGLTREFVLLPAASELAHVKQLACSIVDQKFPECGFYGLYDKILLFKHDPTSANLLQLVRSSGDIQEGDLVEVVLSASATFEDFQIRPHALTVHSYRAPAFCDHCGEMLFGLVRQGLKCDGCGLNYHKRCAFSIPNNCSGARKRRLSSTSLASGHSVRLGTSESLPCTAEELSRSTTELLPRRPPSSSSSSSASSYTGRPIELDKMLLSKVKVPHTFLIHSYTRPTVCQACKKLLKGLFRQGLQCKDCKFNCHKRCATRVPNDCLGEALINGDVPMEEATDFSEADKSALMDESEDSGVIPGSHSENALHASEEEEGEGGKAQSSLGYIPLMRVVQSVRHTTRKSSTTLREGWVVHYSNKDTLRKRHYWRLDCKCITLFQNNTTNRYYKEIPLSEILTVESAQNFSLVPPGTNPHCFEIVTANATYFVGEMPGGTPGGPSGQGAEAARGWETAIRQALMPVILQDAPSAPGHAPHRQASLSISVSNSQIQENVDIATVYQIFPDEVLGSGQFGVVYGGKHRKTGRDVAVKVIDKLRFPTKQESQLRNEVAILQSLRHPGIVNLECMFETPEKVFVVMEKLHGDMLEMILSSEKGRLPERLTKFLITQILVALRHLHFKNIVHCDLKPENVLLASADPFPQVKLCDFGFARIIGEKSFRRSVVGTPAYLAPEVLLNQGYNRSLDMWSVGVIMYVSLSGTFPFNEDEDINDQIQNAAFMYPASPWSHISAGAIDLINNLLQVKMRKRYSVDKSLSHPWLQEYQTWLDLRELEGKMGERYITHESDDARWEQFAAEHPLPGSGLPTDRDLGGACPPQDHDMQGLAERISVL
- Protocol: Caliper, Mobility shift assay off-chip
- Test parameters: compound 0.2 µM
Quantity measured: inhibition (%)

Use the examples below as a reference point.
# Smi, Target or test system, Test value
records = [
    ("CCN(CC)CCNC(=O)c1c(C)[nH]c(/C=C2\\C(=O)Nc3ccc(F)cc32)c1C", "PRKD2 (human) (UniProt Q9BZL6)", 65.6),
    ("Cc1ccc(Nc2nccc(N(C)c3ccc4c(C)n(C)nc4c3)n2)cc1S(N)(=O)=O", "PRKD2 (human) (UniProt Q9BZL6)", -1.5),
]

P = CNC(=O)c1cc(Oc2ccc(NC(=O)Nc3ccc(Cl)c(C(F)(F)F)c3)cc2)ccn1
Q = COc1cc2c(Oc3ccc4[nH]c(C)cc4c3F)ncnc2cc1OCCCN1CCCC1
Lab note: check whether P or Q shows the higher recorded inhibition. Select an item and report its label.
P

* * *

- Target or test system: SPHK1 (human)
- Protocol: Caliper, Mobility shift assay off-chip
- Test parameters: compound 0.2 µM
Quantity measured: inhibition (%)

# Smi, Result unit, inhibition
data = [
    ("COc1cc2c(Oc3ccc4[nH]c(C)cc4c3F)ncnc2cc1OCCCN1CCCC1", "%", -7.8),
]

1 = Cc1ccc(Nc2nccc(N(C)c3ccc4c(C)n(C)nc4c3)n2)cc1S(N)(=O)=O
2 = CCN(CC)CCNC(=O)c1c(C)[nH]c(/C=C2\C(=O)Nc3ccc(F)cc32)c1C
3 = CNC(=O)c1cc(Oc2ccc(NC(=O)Nc3ccc(Cl)c(C(F)(F)F)c3)cc2)ccn1
Returns the items ordered by inhibition, from maximum to minimum. Use the labels to give the requested order.
3, 1, 2
(3: 3.2%, 1: -5.9%, 2: -10.4%)

* * *

- Target or test system: ERBB4 (human)
- Protocol: Caliper, Mobility shift assay off-chip
- Test parameters: compound 0.2 µM
Quantity measured: inhibition (%)

I = CCN(CC)CCNC(=O)c1c(C)[nH]c(/C=C2\C(=O)Nc3ccc(F)cc32)c1C
II = Cc1ccc(Nc2nccc(N(C)c3ccc4c(C)n(C)nc4c3)n2)cc1S(N)(=O)=O
III = CNC(=O)c1cc(Oc2ccc(NC(=O)Nc3ccc(Cl)c(C(F)(F)F)c3)cc2)ccn1
IV = COc1cc2c(Oc3ccc4[nH]c(C)cc4c3F)ncnc2cc1OCCCN1CCCC1
With regard to inhibition, arrange the entries in ascending order, please. I would appreciate it if you listed the labels in the requested order.
I, II, III, IV
